Known inhibition at 1 µM of a selection of molecules
test system: ability of TGF-β to promote transcription of a Type I collagen gene; assay: Inhibition of the ability of TGF-β to promote transcription of a Type I collagen gene (COL-Luc reporter gene assay); assay type: cell-based; conditions: final concentration 1 μM; TGF-β added; normal human fetal skin fibroblast transfected with COL-Luc; 40 hours; read-out: Inhibition percentage

molecule: Cc1cc(O)c(C(=O)C=Cc2cccc(C(=O)NCC#N)c2)c(=O)[nH]1 [Compound No. (35a)]
inhibition at 1 µM: ≥ 70%
--
molecule: COC(=O)COc1cccc(C=CC(=O)c2c(O)cc(C)[nH]c2=O)c1 [Compound No. (7a)]
inhibition at 1 µM: ≥ 70%
--
molecule: COCC(=O)Nc1cccc(C=CC(=O)c2c(O)cc(C)[nH]c2=O)c1 [Compound No. (18a)]
inhibition at 1 µM: ≥ 70%
--
molecule: Cn1c(=O)c(C(=O)C=Cc2cccc(OCC#N)c2)c(O)c2ccccc21 [Compound No. (11e)]
inhibition at 1 µM: ≥ 70%
--
molecule: Cc1cc(O)c(C(=O)C=Cc2ccc(OCC#N)cc2)c(=O)[nH]1 [Compound No. (13a)]
inhibition at 1 µM: ≥ 70%
--
molecule: COCCNC(=O)Nc1cccc(C=CC(=O)c2c(O)cc(C)[nH]c2=O)c1 [Compound No. (22a)]
inhibition at 1 µM: ≥ 70%
--
molecule: N#CCOc1ccc(C=CC(=O)c2c(O)c3ccccc3[nH]c2=O)cc1 [Compound No. (13e)]
inhibition at 1 µM: ≥ 70%
--
molecule: N#CCOc1cccc(C=CC(=O)c2c(O)c3ccccc3[nH]c2=O)c1 [Compound No. (10e)]
inhibition at 1 µM: ≥ 70%

// provenance: patent US7989478B2
